Values from PubChem BioAssay

Answer each item with its documented composite z-score.
Test: small-molecule microarray binders of probe aWnt5a, primary screen, biochemical, biotinylated probe, 635/667 nm fluorescence (AID 1113);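 also: score merges 667 nm fluorescence intensity with signal-to-noise per printed feature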
Details: higher = more signal

Prompt: Quote composite z-score reported for `C[C@H]1COC(=O)[C@H](Cc2ccccc2)NC(=O)[C@@H](C)COC(=O)[C@H](Cc2ccccc2)NC1=O` please.
Completion: -0.236

Prompt: Quote composite z-score reported for `COc1ccc([Si](C)(C)[C@H]2[C@H](CCO)O[C@@]3(C(=O)N(Cc4ccc(N5CCCCC5=O)cc4)c4ccccc43)[C@@H]2C)cc1` please.
Completion: -0.116

Prompt: Quote composite z-score reported for `Cc1ccc(N2C(=O)c3ccccc3[C@@H](C(=O)NCc3ccccc3)[C@@H]2c2ccc(CO)cc2)nc1` please.
Completion: -0.148

Prompt: Quote composite z-score reported for `C=C[C@H](OC)[C@@H](OC(=O)Nc1ccc(SC)cc1)c1ccc(OC)c(O)c1` please.
Completion: -0.176

Prompt: Quote composite z-score reported for CC(c1ccccc1)C(O)C1C=CC2C(=O)N(C)C(=O)C2N1N(c1ccccc1)c1ccccc1 (stereo not drawn) please.
Completion: -0.0057

Prompt: Quote composite z-score reported for O=C1OCC=C[C@H]2OC34C=CCN(Cc5ccccc5)C(=O)[C@H]3N(CCCCCO)C(=O)[C@@H]4[C@@H]12 (stereo partly drawn) please.
Completion: -0.169

Prompt: Quote composite z-score reported for `CCOC(=O)C[C@H]1[C@H](OC(=O)c2ccccc2-c2ccccc2)[C@@H](NC(=O)C2CCCCC2)c2cc(OCCCO)ccc2N1C(=O)c1ccccc1` please.
Completion: -0.213

Prompt: Quote composite z-score reported for `C[C@H]1COC(=O)[C@@H]2CCCN2C(=O)[C@@H](C)COC(=O)[C@@H]2CCCN2C1=O` please.
Completion: -0.124

----------
Assay: small-molecule binders of probe aLefty1, primary screen, biochemical, small-molecule microarray, 635/667 nm fluorescence (AID 1153);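 also: score merges spot fluorescence with signal-to-noise ratio from the scanned slide images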
Settings: higher = more signal
Answer each item with its documented composite z-score.
Number, no unit, nothing else.

Prompt: Quote composite z-score reported for `CO[C@H]1O[C@H](CO)[C@@H](OC(=O)Nc2ccc(Oc3ccccc3)cc2)[C@H](OC(=O)Nc2ccccc2-c2ccccc2)[C@H]1OC(=O)Nc1ccccc1-c1ccccc1` please.
Completion: 0.371

Prompt: Quote composite z-score reported for `CCOC(=O)C1=C[C@@H](c2ccccc2)N(S(=O)(=O)c2ccc(C)cc2)[C@H]1c1ccc(F)cc1` please.
Completion: 0.275

Prompt: Quote composite z-score reported for `CCCNC(=O)[C@@]1(Sc2ccc(C)cc2)CC(=O)N(Cc2ccccc2Cl)[C@@H]1c1ccc(CO)cc1` please.
Completion: 0.369

Prompt: Quote composite z-score reported for `COc1cccc([C@H]2N[C@H](C(=O)O)CC[C@@H]2C)c1` please.
Completion: -0.23

Prompt: Quote composite z-score reported for CN1C(=O)C2C=CC(C(O)C3CC=CCC3)N(Nc3ccccc3)C2C1=O (stereo not given) please.
Completion: 0.346

Prompt: Quote composite z-score reported for `CO[C@@H]1COC(=O)[C@H](C)NC(=O)CC=C[C@@H](C)[C@H](OC)COC(=O)[C@H](C)NC(=O)CC=C[C@H]1C` please.
Completion: -0.0984

Prompt: Quote composite z-score reported for `CO[C@@H]1COC(=O)[C@H](C)NC(=O)CC=C[C@@H](C)[C@H](NS(=O)(=O)c2ccc(C)cc2)COC(=O)CC=C[C@@H]1C` please.
Completion: -0.15

Prompt: Quote composite z-score reported for `CC(=O)NCCCC[C@@H]1NC(=O)[C@@H]2C[C@H](C(=O)NCCCCCNC(=O)CS)[C@H](c3ccc(O)cc3)N2C1=O` please.
Completion: -0.0528

Prompt: Quote composite z-score reported for `CO[C@H]1COC(=O)CC=C[C@@H](C)COC(=O)[C@@H](C)NC(=O)CC=C[C@@H]1C` please.
Completion: -0.276

Prompt: Quote composite z-score reported for CCC1=C2CN(Cc3ccccc3Br)[C@@H]([C@@H](O)Cc3ccccc3)C2C=CCC1 (stereo not given in full) please.
Completion: -0.101

Prompt: Quote composite z-score reported for CC(C)N1CC=CC23O[C@@H]4/C=C\CCCOC(=O)C4[C@H]2C(=O)N(CCO)[C@@H]3C1=O (stereo not given in full) please.
Completion: -0.0518

Prompt: Quote composite z-score reported for `CO[C@@H]1COC(=O)CC=C[C@H](C)COC(=O)[C@H](Cc2ccccc2)NC(=O)CC=C[C@H]1C` please.
Completion: -0.358

Prompt: Quote composite z-score reported for `CCCC=C(CCC)[C@@H](NS(=O)(=O)c1ccc(C(F)(F)F)cc1)c1ccc(-c2ccccc2)cc1` please.
Completion: 0.448

Prompt: Quote composite z-score reported for `CCOC(=O)C[C@H]1[C@H](OC(=O)c2ccccc2-c2ccccc2)[C@@H](NC(=O)c2ccc(-c3ccccc3)cc2)c2cc(OCCCO)ccc2N1C(=O)Cc1ccc(OC)cc1` please.
Completion: -0.147

Prompt: Quote composite z-score reported for C[C@@H]1NC(=O)[C@H](Cc2ccccc2)NC(=O)[C@@]23C(=O)N[C@@H](Cc4ccccc4)C2[C@H](C)[C@@]2(C)O[C@H]2C3/C=C/C/C=C\CNC1=O (stereo not given in full) please.
Completion: -0.169
